Test system: human PKK mRNA
Assay: Dose-dependent antisense inhibition of human PKK in HepaRG cells, 0.11-3.00 uM (Example 6)
Assay type: cell-based
Details: electroporation, 0.33 μM, approx. 16 hours, relative to untreated control cells
Strand notation (5' to 3'): a small letter for the sugar, then the base; units joined by * are phosphorothioate-linked, units joined directly phosphodiester-linked; [ ] holds rarer units or linkages, { } end groups; capitals alone tell only the bases. e = 2'-O-(2-methoxyethyl) (MOE); k = constrained ethyl (cEt); [5mC] = 5-methylcytosine; d = 2'-deoxy (DNA)
Param threshold (50%) applies to percent inhibition of PKK mRNA, 0.33 μM; output condition met when value >= threshold, condition not met when value < threshold.

Incoming: Could you please find out whether 548479 (eA*eG*kG*d[5mC]*d[5mC]*dA*dT*dT*dT*dG*dA*dT*d[5mC]*k[5mC]*kG*eA; antisense) [compound 548479] has percent inhibition of PKK mRNA, 0.33 μM that meets 50% or exceeds it?
Outgoing: condition met

Incoming: Decide: percent inhibition of PKK mRNA, 0.33 μM of 548046 (eT*eA*kT*d[5mC]*dA*dT*dG*dA*dT*dT*d[5mC]*d[5mC]*d[5mC]*kT*kT*e[5mC]; antisense) [compound 548046] >= 50%?
Outgoing: condition not met

Incoming: Check this substance for percent inhibition of PKK mRNA, 0.33 μM at or above 50%: 547948 (eA*eG*kG*dA*dA*d[5mC]*dT*dT*dG*dG*dT*dG*dT*kG*k[5mC]*e[5mC]; antisense) [compound 547948]
Outgoing: condition met

Incoming: Quick check, percent inhibition of PKK mRNA, 0.33 μM >= 50%? 547870 (antisense e[5mC]*eT*kA*dA*d[5mC]*d[5mC]*dT*dT*dA*dG*dA*d[5mC]*dA*k[5mC]*kA*eT) [compound 547870]
Outgoing: condition not met

Incoming: Check if percent inhibition of PKK mRNA, 0.33 μM >= 50% (inclusive). Item: 547859 (antisense e[5mC]*e[5mC]*kT*d[5mC]*dT*d[5mC]*dA*dT*dA*dT*d[5mC]*dA*dA*k[5mC]*kT*e[5mC]) [compound 547859]
Outgoing: condition met

Incoming: Check the entry 548106 (antisense e[5mC]*e[5mC]*kA*dT*dG*dT*dA*d[5mC]*dT*d[5mC]*dA*dG*d[5mC]*kG*kA*e[5mC]) [compound 548106] : does percent inhibition of PKK mRNA, 0.33 μM equal or exceed 50%?
Outgoing: condition met

Incoming: Reported percent inhibition of PKK mRNA, 0.33 μM at or above 50%? 547849 (antisense eA*eA*kT*dG*dT*d[5mC]*dT*d[5mC]*dG*dA*dT*dG*dG*k[5mC]*kA*eA) [compound 547849]
Outgoing: condition met

Incoming: Dear colleague, could you confirm whether 548409 (antisense eG*eT*kA*dT*d[5mC]*dA*d[5mC]*dT*dG*dT*dA*d[5mC]*dT*kA*kG*eT) [compound 548409] has percent inhibition of PKK mRNA, 0.33 μM at or above 50%?
Outgoing: condition met

Incoming: Quick check: does 547998 (antisense e[5mC]*eT*kT*dG*dT*dG*dT*d[5mC]*d[5mC]*d[5mC]*dA*dT*dA*k[5mC]*kG*e[5mC]) [compound 547998] have percent inhibition of PKK mRNA, 0.33 μM greater than or equal to 50%?
Outgoing: condition met
